- TEST_TARGET: Proteinase-activated receptor 1 (Homo sapiens)
- Sequence (P25116 whole entry): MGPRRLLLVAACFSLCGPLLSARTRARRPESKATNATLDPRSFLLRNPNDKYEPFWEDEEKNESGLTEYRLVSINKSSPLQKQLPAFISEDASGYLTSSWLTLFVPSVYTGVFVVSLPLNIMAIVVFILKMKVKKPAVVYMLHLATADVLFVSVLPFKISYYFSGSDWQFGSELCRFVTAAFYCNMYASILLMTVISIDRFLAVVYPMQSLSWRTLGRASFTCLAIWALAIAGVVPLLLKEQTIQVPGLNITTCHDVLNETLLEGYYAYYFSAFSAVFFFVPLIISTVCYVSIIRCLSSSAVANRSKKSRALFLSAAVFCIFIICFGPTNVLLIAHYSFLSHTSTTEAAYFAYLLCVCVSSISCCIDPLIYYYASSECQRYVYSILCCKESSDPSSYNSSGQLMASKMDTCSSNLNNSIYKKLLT
- ASSAY_PROTOCOL: Displacement of [3H]haTRAP from PAR-1 isolated from human platelets by liquid scintillation counting analysis
With a cut-off of 0.02 µM, any Ki strictly below it is called class 1; any Ki meeting it or above is called class 0.

Prompt line: Identify whether the compound CCS(=O)(=O)NC[C@@H]1CC[C@@H]2[C@@H](C1)C[C@H]1C(=O)O[C@H](C)[C@H]1[C@H]2/C=C/c1ccc(-c2cccc(F)c2)cn1 records Ki below 0.02 µM.
Response line: class 1

Prompt line: // same read-out, input: C[C@H]1OC(=O)[C@@H]2C[C@@H]3C[C@H](C(=O)N4CC[C@@H](O)C4)CC[C@H]3[C@H](/C=C/c3ccc(-c4cccc(C(F)(F)F)c4)cn3)[C@H]12
Response line: class 0

Prompt line: // same read-out, input: CCOC(=O)NC[C@@H]1CC[C@@H]2[C@@H](C1)C[C@H]1C(=O)O[C@H](C)[C@H]1[C@H]2/C=C/c1ccc(-c2cccc(F)c2)cn1
Response line: class 1

Prompt line: // same read-out, input: C[C@H]1OC(=O)[C@@H]2C[C@@H]3C[C@H](CNS(C)(=O)=O)CC[C@H]3[C@H](/C=C/c3ccc(-c4cccc(F)c4)cn3)[C@H]12
Response line: class 1

Prompt line: // same read-out, input: C[C@H]1OC(=O)[C@@H]2C[C@@H]3C[C@H](CNC(=O)[C@@H]4CCCN4)CC[C@H]3[C@H](/C=C/c3ccc(-c4cccc(F)c4)cn3)[C@H]12
Response line: class 0
